B1: Triacylglycerol hydrolase DDHD2, residues 389 to 447; numbered along this chain, O94830 (parent)
chain: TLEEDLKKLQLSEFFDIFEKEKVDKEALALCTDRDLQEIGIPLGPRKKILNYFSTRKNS

# Variants of: B1
# Procedure Text: abundance fitness (aPCA) (normalised: wild type 0, dead -1); higher = more abundant; growth selection in yeast, the domain comes from the species named
# Condition Set: Homo sapiens
Would you please tag the item TRUE when its abundance fitness is -0.07 or above, and FALSE when it is below?

>>> assigned_class("N51P")
"FALSE"
>>> assigned_class("K20I")
"FALSE"
>>> assigned_class("A27N")
"TRUE"
>>> assigned_class("G40A")
"FALSE"
>>> assigned_class("R56E")
"TRUE"
>>> assigned_class("D33P")
"FALSE"
>>> assigned_class("E38G")
"FALSE"
>>> assigned_class("V23E")
"FALSE"
>>> assigned_class("L11E")
"FALSE"
>>> assigned_class("P45R")
"FALSE"
>>> assigned_class("F18H")
"FALSE"
>>> assigned_class("T32I")
"FALSE"
>>> assigned_class("F15S")
"TRUE"
>>> assigned_class("K7S")
"FALSE"
>>> assigned_class("R56F")
"FALSE"
>>> assigned_class("D16V")
"FALSE"
>>> assigned_class("E38K")
"TRUE"
>>> assigned_class("C31R")
"FALSE"
>>> assigned_class("A27D")
"TRUE"
>>> assigned_class("E38H")
"FALSE"
>>> assigned_class("L28V")
"TRUE"
>>> assigned_class("I41E")
"FALSE"
>>> assigned_class("K57T")
"FALSE"
>>> assigned_class("L43Q")
"TRUE"
>>> assigned_class("G44M")
"TRUE"
>>> assigned_class("K47L")
"FALSE"
>>> assigned_class("K57L")
"FALSE"
>>> assigned_class("L43V")
"TRUE"
>>> assigned_class("I41N")
"FALSE"
>>> assigned_class("D33M")
"TRUE"
>>> assigned_class("P42C")
"FALSE"
>>> assigned_class("E3Y")
"FALSE"
>>> assigned_class("G44E")
"TRUE"
>>> assigned_class("Y52N")
"TRUE"
>>> assigned_class("S12V")
"FALSE"
>>> assigned_class("K47R")
"TRUE"
>>> assigned_class("R56N")
"FALSE"
>>> assigned_class("I41F")
"FALSE"
>>> assigned_class("I41V")
"TRUE"
>>> assigned_class("S54R")
"FALSE"
>>> assigned_class("K7Y")
"TRUE"
>>> assigned_class("L11A")
"FALSE"
>>> assigned_class("F53H")
"FALSE"
>>> assigned_class("N51E")
"TRUE"
>>> assigned_class("D5F")
"TRUE"
>>> assigned_class("C31T")
"TRUE"
>>> assigned_class("P42E")
"FALSE"
>>> assigned_class("Q10N")
"TRUE"
>>> assigned_class("F18Q")
"FALSE"
>>> assigned_class("I41Y")
"FALSE"
>>> assigned_class("A29L")
"FALSE"
>>> assigned_class("K22Y")
"TRUE"
>>> assigned_class("E38Q")
"FALSE"
>>> assigned_class("E21A")
"TRUE"
>>> assigned_class("L11T")
"FALSE"
>>> assigned_class("N58A")
"FALSE"
>>> assigned_class("Y52E")
"FALSE"
>>> assigned_class("Q10L")
"FALSE"
>>> assigned_class("A29R")
"TRUE"
>>> assigned_class("D16S")
"TRUE"
>>> assigned_class("D33K")
"FALSE"
>>> assigned_class("K25N")
"FALSE"
>>> assigned_class("S12Q")
"TRUE"
>>> assigned_class("D35T")
"FALSE"
>>> assigned_class("N51L")
"FALSE"
>>> assigned_class("F53V")
"FALSE"
>>> assigned_class("P42V")
"FALSE"
>>> assigned_class("N51Y")
"FALSE"
>>> assigned_class("I49R")
"FALSE"
>>> assigned_class("K57M")
"TRUE"
>>> assigned_class("L28I")
"FALSE"
>>> assigned_class("E38P")
"FALSE"
>>> assigned_class("I39L")
"TRUE"
>>> assigned_class("L6K")
"FALSE"
>>> assigned_class("L11R")
"FALSE"
>>> assigned_class("D33Q")
"FALSE"
>>> assigned_class("T55E")
"TRUE"
>>> assigned_class("V23G")
"FALSE"
>>> assigned_class("F18I")
"FALSE"
>>> assigned_class("G40V")
"FALSE"
>>> assigned_class("E21T")
"TRUE"
>>> assigned_class("C31F")
"TRUE"
>>> assigned_class("T32D")
"FALSE"
>>> assigned_class("Q10I")
"FALSE"

Data origin: the Human Domainome abundance scans (Beltran et al. 2025)
